Cited source: PubChem BioAssay

# test.protocol: binders of probe aHhip on microarray, primary screen, stem cell growth factor project, biochemical, small-molecule microarray, fluorescence 635/667 (AID 1087);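 note: score merges spot fluorescence at 667nm with spot signal to noise ratio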
# condition.details: higher = more signal
Give measured composite z-score for each item. Keep answers brief.
Numbers only.

Solved entries (count: 6):
Cc1ccc([C@H]2C(C(=O)O)=C[C@@H](C(C)C)N2S(=O)(=O)c2ccc(C)cc2)cc1; -0.287
Cn1c2c(c3ccccc31)C(=O)C1NC2C=CC1(C)C(=O)OCc1ccccc1 (configuration not stated); -0.0645
C=C(COC)/C(=C/C[C@H](OC(C)=O)c1ccccc1OCCO)c1cnc2ccccc2c1; 0.142
C=CC[C@]1(C(=O)NCCN2CCOCC2)N=C(c2ccc(OCCCO)cc2)O[C@H]1c1ccccc1N=[N+]=[N-]; 0.176
C=CCOC(=O)[C@H]1[C@@H]2C(=O)O[C@@H](c3ccccc3)[C@@H](c3ccccc3)N2[C@@H](c2ccc(OCCOC(=O)[C@H]3C[C@H]4C(=O)N[C@@H](CCCC[N+](C)(C)C)C(=O)N4[C@H]3c3ccc(O)cc3)cc2)[C@]12C(=O)Nc1ccccc12; -0.608
COCCOC(=O)N1C(=O)[C@@]2(c3ccccc31)[C@H](c1ccc(O)cc1)N1[C@H](c3ccccc3)[C@H](c3ccccc3)OC(=O)[C@H]1[C@@H]2C(N)=O; -0.226

Just so you know, measured composite z-score for COc1ccccc1CN1C(=O)c2ccccc2[C@](Cc2ccccc2I)(C(=O)NCc2ccccc2)[C@@H]1c1ccc(CO)cc1 came out at 0.154

----------
# test.protocol: JC-1 mitochondrial potential readout, lung cancer cells – cell-based, A549, JC-1 fluorescence, basal, 24 h, 100 nL, profiling panel (AID 1138);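 note: A549 lung adenocarcinoma cells under basal conditions with no added stimulus; test concentration not given here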
# condition.details: higher = more signal
Give measured z-score for each item. Keep answers brief.

Solved entries (count: 6):
CC(=O)NCCCC[C@@H]1NC(=O)[C@@H]2C[C@H](C(=O)NCc3ccc(F)cc3)[C@H](c3ccc(O)cc3)N2C1=O; 0.329
COc1ccc(C#Cc2ccc3c(c2)[C@]2(C(=O)N3)[C@H](c3ccc(OCCO)cc3)N3[C@H](c4ccccc4)[C@H](c4ccccc4)OC(=O)[C@H]3[C@@H]2C(=O)Nc2nc3ccccc3s2)cc1; -2.06
CS(=O)(=O)CCOC(=O)C1=CC(c2ccc(CO)cc2)=CC(c2cccs2)N(Cc2cccc(OC(F)(F)F)c2)C=C1C(=O)OCCS(C)(=O)=O (centres undefined); 1.91
CC(C)C(O)C1C=CC2C(=O)N(C)C(=O)C2N1N1CCCCC1 (centres undefined); -0.115
COCC1C2CC[C@H]3C(OCc4ccc(F)cc4C(F)(F)F)OC[C@]4(C)[C@H]3C2=C(CN4C(=O)OC(C)(C)C)[C@H](C)C1COC (some centres undefined); 1.52
C=CCNC(=O)[C@@H]1[C@H]2C(=O)O[C@H](c3ccccc3)[C@H](c3ccccc3)N2[C@H](c2ccccc2OCCO)[C@@]12C(=O)N(C(=O)OCCOC)c1ccc(C#CCC(C(=O)OC)C(=O)OC)cc12; -0.453

I need z-score for every entry listed below, if you could help.
1. Cc1ccc(S(=O)(=O)N2CC(C(=O)O)=CCC2c2ccccc2)cc1 (centres undefined)
2. O=C(CS)NCCCCCCNC(=O)[C@H]1C[C@H]2C(=O)N3CCC[C@H]3C(=O)N2[C@H]1c1ccc(O)cc1
3. O=C1OCCC/C=C\[C@H]2OC34C=CCN(Cn5nnc6ccccc65)C(=O)[C@H]3N(CCCO)C(=O)[C@@H]4C12 (some centres undefined)
4. CN1C(=O)C2C=CC(C(O)C(c3ccccc3)c3ccccc3)N(Nc3ccccc3)C2C1=O (centres undefined)
5. COC(=O)[C@@]1(Cc2ccc(F)cc2)[C@H]2c3cc(C(=O)N4CCCC4)n(Cc4ccc(Cl)c(C(F)(F)F)c4)c3C[C@H]2CN1C(=O)c1ccccc1
6. CC(C)C[C@@H]1NC(=O)[C@@H]2C[C@H](C(=O)NCCCCN(C)C)[C@H](c3ccc(O)cc3)N2C1=O

1. -1.33
2. -0.708
3. -0.275
4. 0.0496
5. 0.815
6. -0.273

I need z-score for every entry listed below, if you could help.
1. CCOC(=O)C[C@H]1[C@H](OC(=O)c2cc3ccccc3oc2=O)[C@@H](NC(=O)c2ccc3ccccc3c2)c2cc(OCCCO)ccc2N1C(=O)c1ccccc1
2. C=CCN1Cc2ccccc2C[C@@]2(COC(c3ccc(OCCCO)cc3)=N2)C1=O

1. -0.59
2. 1.67

----------
Give measured composite z-score for each item. Keep answers brief.
# test.protocol: small molecules captured by biotinylated probe aFGF2 – biochemical, small-molecule microarray, fluorescence 635/667, stem cell growth factor project, primary screen (AID 1067);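 note: measures binding of biotinylated aFGF2 protein to printed compounds on slides; z-score merges feature fluorescence and signal-to-noise across triplicate slides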
# condition.details: higher = more signal

Solved entries (count: 7):
COc1ccc([Si](C)(C)[C@H]2[C@H](CCO)O[C@@]3(C(=O)N(Cc4cccc(N5C(=O)c6cccc7cccc5c67)c4)c4ccccc43)[C@@H]2C)cc1; 0.0253
CCCC[C@@H]1C[C@H]1[C@@H](NC(=O)c1ccco1)c1ccccc1; -0.171
NC(=O)[C@@]1(CCS(=O)(=O)c2ccccc2)N=C(c2ccc(OCCCO)cc2)O[C@H]1c1ccccc1; 0.103
CC(C)C(O)C1C=CC2C(=O)N(C)C(=O)C2N1N1CCCCC1 (stereo not drawn); -0.0412
CC(C)N1C(=O)c2ccccc2[C@](C)(C(=O)NC2CC2)[C@@H]1c1ccc(CO)cc1; -0.129
Cc1ccc([C@H]2C(C(=O)O)=C[C@@H](C(C)C)N2S(=O)(=O)c2ccc(C)cc2)cc1; -0.0667
[N-]=[N+]=NCc1ccccc1C[C@]1(C(=O)N2CCOCC2)N=C(c2ccc(OCCCO)cc2)O[C@H]1c1ccccc1; -0.0455

Okay, next one:
Just so you know, measured composite z-score for CCCC[C@H]1OB(O)C[C@H]2C1=C(COc1ccccc1)C[C@H]1C(=O)N(Cc3ccccc3)C(=O)[C@H]12 came out at -0.0434

----------
# test.protocol: inhibition of PAO1 biofilm formation – strain PAO1, LB-PBS medium, absorbance 600 nm, primary screen (AID 1176); note: test concentration not given here
# condition.details: P. aeruginosa PAO1 growth/biofilm, A600, 12 h; higher = more signal
Please mark fulfilled if the recorded z-score is equal to or greater than 0.5, and not fulfilled if it falls below.

Illustrative cases are given below, each with its answer.
[N-]=[N+]=NCc1ccccc1C[C@]1(C(N)=O)N=C(c2ccc(OCCCO)cc2)O[C@H]1c1ccccc1N=[N+]=[N-]; fulfilled
C=CCOC(=O)[C@@H]1[C@H]2C(=O)O[C@H](c3ccccc3)[C@H](c3ccccc3)N2[C@H](c2ccc(OCCOC(=O)[C@H]3C[C@H]4C(=O)N[C@@H](Cc5ccccc5)C(=O)N4[C@H]3c3ccc(O)cc3)cc2)[C@@]12C(=O)Nc1ccc(I)cc12; fulfilled
C=CCC(OC(C)=O)[C@@H]1[C@@H](N(Cc2cc3ccccc3o2)C(=O)c2ccc(-c3ccccc3)cc2)c2cc(OCCCO)ccc2N1C(=O)Cc1ccc2ccccc2c1 (stereo partly drawn); not fulfilled
CC(C)C(O)C1C=CC2C(=O)N(C)C(=O)C2N1N1CCCCC1 (stereo not drawn); fulfilled
NC(=O)NCC#Cc1ccc2c(c1)[C@]1(C(=O)N2)[C@H](c2ccc(O)cc2)N2[C@H](c3ccccc3)[C@H](c3ccccc3)OC(=O)[C@H]2[C@@H]1C(=O)N1CCN(c2ncccn2)CC1; fulfilled

Kindly determine if z-score recorded for COCCOC(=O)N1C(=O)[C@@]2(c3cc(C#Cc4ccc(OC)cc4)ccc31)[C@H](c1ccc(O)cc1)N1[C@H](c3ccccc3)[C@H](c3ccccc3)OC(=O)[C@H]1[C@@H]2C(=O)N1CCN(c2ncccn2)CC1 is above or exactly 0.5.
not fulfilled

Kindly determine if z-score recorded for C=CC[C@@]1(C(=O)NCCN2CCOCC2)N=C(c2ccc(OCCCO)cc2)O[C@@H]1c1ccccc1CN=[N+]=[N-] is above or exactly 0.5.
not fulfilled

Kindly determine if z-score recorded for CN1C(=O)C2C(C1=O)C1C=C(c3ccc(CO)cc3)C2C(C2CC2)N1Cc1sc2ccccc2c1Cl (stereo not drawn) is above or exactly 0.5.
not fulfilled

Kindly determine if z-score recorded for CN1C(=O)C2C(C1=O)C1C=C(c3ccc(CO)cc3)C2C(C2CC2)N1Cc1cc2c(cc1Br)OCO2 (stereo not drawn) is above or exactly 0.5.
not fulfilled

Kindly determine if z-score recorded for CCCCC(=C=CC[C@H](O)c1ccccc1OCCO)C[C@H](O)c1cc(Cl)cc(Cl)c1O is above or exactly 0.5.
not fulfilled

Kindly determine if z-score recorded for [N-]=[N+]=Nc1ccccc1[C@H]1OC(c2ccc(OCCCO)cc2)=N[C@@]1(CCS(=O)(=O)c1ccccc1)C(=O)N1CCOCC1 is above or exactly 0.5.
fulfilled

Kindly determine if z-score recorded for CC(C)NC(=O)[C@@]1(c2ccc([N+](=O)[O-])cc2)CC(=O)N(C(C)C)[C@@H]1c1ccc(CO)cc1 is above or exactly 0.5.
fulfilled

Kindly determine if z-score recorded for COC(=O)[C@@]1(Cc2ccc(OC)cc2)[C@H]2c3cc(C(=O)N4CCCC4)n(CCc4ccccn4)c3C[C@H]2CN1C(=O)c1ccccc1 is above or exactly 0.5.
fulfilled
